The origin of these recorded values is BindingDB's records for doi:10.1016/j.bmcl.2013.04.070.

biological target: Presenilin-1 (Homo sapiens); experiment: Modulation of human gamma-secretase presenilin-1 subunit expressed in CHO cells coexpressing human APP assessed as decrease in amyloid beta 42 generation after 24 hrs by ELISA
quantity: IC50 (µM)
Please reply with the bare figure in µM and do not write the unit itself.

Identify the reported IC50 for the following entry. CCCCCCCCOC(=O)C1(C)CCc2c(C)c(OCC(=O)O)c(C)c(C)c2O1 (stereo unspecified)
31.6
